# SYSTEM_TESTED: UniProt P52333
# MEASUREMENT_DESCRIPTION: JAK enzymatic assay (peptide mobility shift), JAK3
# Format: biochemical
# CONDITION_DESCRIPTION: recombinant JAK3 1 nM, JAKtide peptide, 90 minutes
RESULT_TYPE: IC50 (nM)

(I) CNS(=O)(=O)[C@H]1CCN(S(=O)(=O)C[C@H]2CC[C@H](N(C)c3ncnc4[nH]ccc34)CC2)C1 [Example 81]
(II) CN(c1ncnc2[nH]ccc12)[C@H]1CC[C@H](CS(=O)(=O)N2CC[C@@H](F)C2)CC1 [Example 34]
(III) CC[C@@]1(CO)CCN(S(=O)(=O)C[C@H]2CC[C@H](N(C)c3ncnc4[nH]ccc34)CC2)C1 [Example 74]
(IV) C[C@@H]1C[C@@H](CS(=O)(=O)N2CC[C@@H](CO)C2)CC[C@@H]1N(C)c1ncnc2[nH]ccc12 [Example 132]
(V) CN(c1ncnc2[nH]ccc12)[C@H]1CC[C@H](CS(=O)(=O)N2CCN(Cc3ccccn3)CC2)CC1 [Example 123]
Ordering: ascending IC50. The reply should contain the labels ordered as requested. IV, I, II, V, III
(IV: 51.2 nM, I: 90.6 nM, II: 217 nM, V: 323 nM, III: 495 nM)

(I) CN(c1ncnc2[nH]ccc12)[C@H]1CC[C@H](CS(=O)(=O)N2CC[C@H](CC#N)C2)CC1 [Example 32]
(II) CN(c1ncnc2[nH]ccc12)[C@H]1CC[C@H](CS(=O)(=O)N2CC[C@H](NC(=O)OC(C)(C)C)C2)CC1 [Example 26]
Parameter metric = IC50. Return the lower-valued option from I and II . Answer format: the label of the selected item. II
(II: 230 nM, I: 355 nM)

(P) CN(c1ncnc2[nH]ccc12)[C@H]1CC[C@H](CS(=O)(=O)N2CC(S(=O)(=O)CC3CC3)C2)CC1 [Example 116]
(Q) CN(c1ncnc2[nH]ccc12)[C@H]1CC[C@H](CS(=O)(=O)N2CC[C@H](c3ncccn3)C2)CC1 [Example 87]
Hi, I'm comparing P with Q and wondering which one has the bigger number for IC50. Any idea? Answer format: the label of the selected item. P
(P: 298 nM, Q: 55.7 nM)

(1) CN(c1ncnc2[nH]ccc12)[C@H]1CC[C@H](CS(=O)(=O)N2CCC[C@@H](OC(=O)C(C)(C)C)C2)CC1 [Example 134]
(2) CC1CC(CS(=O)(=O)N2CC[C@H](CO)C2)CCC1N(C)c1ncnc2[nH]ccc12 (some centres unmarked) [Example 133]
Hi, I'm comparing 1 with 2 and wondering which one has the bigger number for IC50. Any idea? Answer format: the label of the selected item. 1

(a) CN(c1ncnc2[nH]ccc12)[C@H]1CC[C@H](CS(=O)(=O)N2CC[C@@H](O)[C@H](O)C2)CC1 [Example 12]
(b) CN(c1ncnc2[nH]ccc12)[C@H]1CC[C@H](CS(=O)(=O)N2CCC(c3nc(CS(C)(=O)=O)no3)CC2)CC1 [Example 50]
Parameter metric = IC50. Return the lower-valued option from a and b . Answer format: the label of the selected item. a
(a: 119 nM, b: 581 nM)

----------
# SYSTEM_TESTED: JAK3 (Homo sapiens (Human), UniProt P52333)
# Sequence (P52333 781-1124): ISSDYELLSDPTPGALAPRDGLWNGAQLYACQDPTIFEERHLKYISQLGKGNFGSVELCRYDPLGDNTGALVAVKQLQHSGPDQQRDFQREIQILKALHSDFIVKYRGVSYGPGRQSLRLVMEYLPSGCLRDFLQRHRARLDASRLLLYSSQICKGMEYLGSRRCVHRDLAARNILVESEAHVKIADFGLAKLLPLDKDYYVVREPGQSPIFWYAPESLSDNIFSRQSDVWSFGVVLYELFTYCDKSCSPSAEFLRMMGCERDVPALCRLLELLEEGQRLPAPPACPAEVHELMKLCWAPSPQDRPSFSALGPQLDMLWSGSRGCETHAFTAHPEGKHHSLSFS
# MEASUREMENT_DESCRIPTION: JAK enzymatic assay (peptide mobility shift), JAK3
# CONDITION_DESCRIPTION: recombinant JAK3 1 nM, JAKtide peptide, 90 minutes
pIC50: −log10 of the molar value.
RESULT_TYPE: pIC50

CN(c1ncnc2[nH]ccc12)[C@H]1CC[C@H](CS(=O)(=O)N2CC[C@H](Cc3cnccn3)C2)CC1 [Example 102]
6.55

(P) CN(c1ncnc2[nH]ccc12)[C@H]1CC[C@H](CS(=O)(=O)N2CC[C@H](O)[C@H](O)C2)CC1 [Example 22]
(Q) CN(c1ncnc2[nH]ccc12)[C@H]1CC[C@H](CS(=O)(=O)N2CC[C@@H](O)[C@@H](O)C2)CC1 [Example 13]
Hi, I'm comparing P with Q and wondering which one has the bigger number for pIC50. Any idea? Answer format: the label of the selected item. P
